- TEST_SYSTEM: D2 dopamine receptor (Rattus norvegicus (Rat))
- Sequence (P61169 whole entry): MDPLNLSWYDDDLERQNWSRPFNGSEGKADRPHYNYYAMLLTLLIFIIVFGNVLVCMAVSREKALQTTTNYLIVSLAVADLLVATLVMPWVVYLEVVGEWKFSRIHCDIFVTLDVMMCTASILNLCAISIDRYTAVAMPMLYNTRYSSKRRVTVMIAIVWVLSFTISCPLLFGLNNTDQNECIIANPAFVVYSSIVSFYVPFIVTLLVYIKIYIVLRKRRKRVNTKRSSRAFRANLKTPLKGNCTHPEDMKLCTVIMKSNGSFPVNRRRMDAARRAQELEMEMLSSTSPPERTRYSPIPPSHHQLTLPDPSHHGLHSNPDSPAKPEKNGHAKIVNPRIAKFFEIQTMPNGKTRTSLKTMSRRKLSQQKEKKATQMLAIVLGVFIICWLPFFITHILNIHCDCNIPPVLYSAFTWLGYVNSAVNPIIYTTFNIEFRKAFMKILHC
- PROTOCOL_DESCRIPTION: Affinity on dopamine D2 receptor, competition with [3H] Spiperone
- Assay type: binding
- Parameters: concentration or dose not given beside the values
- Procedure: (1). Determination of the Affinity of Hexahydrodibenzo[a,g]Quinolizine Compound of General Formula I and Derivatives Thereof on Dopamine D1, Dopamine D2, 5-HT1A, and 5-HT2A Receptor. 1) The Experimental Method Different concentrations (10^−5 M-10^−11 M) of the compound of the invention and corresponding isotope receptor ligand as well as receptor protein were loaded into the reaction tube and incubated in 30° C. water bath for 60 minutes. The reaction was terminated in a refrigerator. […]
REPORTED_PROPERTY: D2 receptor inhibition ratio (%)

>  <COMPOUND>
COc1cc2c(cc1OC)[C@@H]1Cc3cc(OC)c(OC)c(OC)c3CN1CC2

>  <UNIT_STRING>
%

>  <EXPERIMENTAL_RESULT>
48.0

$$$$
>  <COMPOUND>
COc1cc2c(c(OC)c1OC)CN1CCc3cc4c(cc3[C@@H]1C2)OCO4

>  <UNIT_STRING>
%

>  <EXPERIMENTAL_RESULT>
66.2

$$$$
>  <COMPOUND>
COc1cc2c(cc1OC)CN1CCc3cc(O)c(O)cc3C1C2 (racemic)

>  <UNIT_STRING>
%

>  <EXPERIMENTAL_RESULT>
76.2

$$$$

(1) COc1cc2c(cc1OC)[C@@H]1Cc3c(OC)ccc(OC)c3CN1CC2
(2) COc1cc2c(cc1OC)CN1CCc3cc4c(cc3C1C2)OCO4 (racemic)
### Prompt Dear colleague, could you let me know whether 1 or 2 has the lower recorded D2 receptor inhibition ratio (%)? Thanks. Kindly state the label of the option you pick.
### Response 2
(2: 44.5%, 1: 92.8%)
